Biological target: T1, biotinylated Aβ1-40 peptide (biotinylated (N-biotinylated in Example 7))
T1 construct: captured on streptavidin (SA) chip; also called Biotinylated Aβ peptide 1-40; Aβ1-40 on SA chip
T1 sequence (peptide, as listed by the source): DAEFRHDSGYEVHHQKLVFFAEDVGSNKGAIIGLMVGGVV
Assay: SPR, Fab over Aβ1-40 on SA chip; KD=koff/kon
pKd: −log10 of the molar value.
Kind request: treat 8 as inclusive, so pKd at 8 or higher is condition met, anything lower is condition not met.

[
  {
    "BINDER": "9TL variant M3 Fab (Fab, V domains shown, Fab; human IgG2 CH1 and kappa CL) VH: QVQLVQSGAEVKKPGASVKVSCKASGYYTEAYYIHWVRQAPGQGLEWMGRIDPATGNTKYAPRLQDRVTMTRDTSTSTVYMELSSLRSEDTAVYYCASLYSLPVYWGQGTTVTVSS VL: DVVMTQSPLSLPVTLGQPASISCKSSQSLLYSDAKTYLNWFQQRPGQSPRRLIYQISRLDPGVPDRFSGSGSGTDFTLKISRVEAEDVGVYYCCQGTHYPVLFGQGTRLEIKR",
    "DISCRETE_LABEL": "condition met"
  },
  {
    "BINDER": "9TL variant M8 Fab (Fab, V domains shown, Fab; human IgG2 CH1 and kappa CL) VH: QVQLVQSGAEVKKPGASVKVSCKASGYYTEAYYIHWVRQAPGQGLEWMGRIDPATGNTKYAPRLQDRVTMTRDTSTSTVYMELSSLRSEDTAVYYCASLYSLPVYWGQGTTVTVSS VL: DVVMTQSPLSLPVTLGQPASISCKSSQSLLYSDAKTYLNWFQQRPGQSPRRLIYQISRLDPGVPDRFSGSGSGTDFTLKISRVEAEDVGVYYCQQGTHYPVLFGQGTRLEIKR",
    "DISCRETE_LABEL": "condition not met"
  },
  {
    "BINDER": "9TL variant M32 Fab (Fab, V domains shown, Fab; human IgG2 CH1 and kappa CL) VH: QVQLVQSGAEVKKPGASVKVSCKASGYYTEAYYIHWVRQAPGQGLEWMGRIDPATGNTKYAPRLQDRVTMTRDTSTSTVYMELSSLRSEDTAVYYCASIYSLPVYWGQGTTVTVSS VL: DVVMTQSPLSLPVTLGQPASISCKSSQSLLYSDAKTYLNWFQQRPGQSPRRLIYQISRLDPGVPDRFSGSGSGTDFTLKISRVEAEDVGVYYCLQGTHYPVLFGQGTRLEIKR",
    "DISCRETE_LABEL": "condition not met"
  },
  {
    "BINDER": "9TL variant M35 Fab (Fab, V domains shown, Fab; human IgG2 CH1 and kappa CL) VH: QVQLVQSGAEVKKPGASVKVSCKASGYYTEAYYIHWVRQAPGQGLEWMGRIDPATGNTKYAPRLQDRVTMTRDTSTSTVYMELSSLRSEDTAVYYCASLYGLPVYWGQGTTVTVSS VL: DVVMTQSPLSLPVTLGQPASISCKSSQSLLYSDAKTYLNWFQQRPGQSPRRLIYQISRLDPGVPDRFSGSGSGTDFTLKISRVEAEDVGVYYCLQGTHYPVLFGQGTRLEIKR",
    "DISCRETE_LABEL": "condition not met"
  },
  {
    "BINDER": "9TL variant M38 Fab (Fab, V domains shown, Fab; human IgG2 CH1 and kappa CL) VH: QVQLVQSGAEVKKPGASVKVSCKASGYYTEAYYIHWVRQAPGQGLEWMGRIDPATGNTKYAPRLQDRVTMTRDTSTSTVYMELSSLRSEDTAVYYCASLYSVPVYWGQGTTVTVSS VL: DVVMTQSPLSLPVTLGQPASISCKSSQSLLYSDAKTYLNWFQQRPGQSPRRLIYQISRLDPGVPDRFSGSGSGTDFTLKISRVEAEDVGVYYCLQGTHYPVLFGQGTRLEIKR",
    "DISCRETE_LABEL": "condition met"
  }
]
